experiment: AUC (0 to t) in ICR mouse at 1 mg/kg, iv measured for 0.083 to 24 hrs by LC-MS/MS analysis; assay type: ADME, organism-based; set-up: time 0.083-24 hrs, dose 1 mg/kg, route iv; conditions: in vivo

Item Smiles: O=C(NO)c1nc(-c2ccc(COc3ccc(Br)cc3)cc2)no1
AUC(0-t), ng·h/mL: 227

----------
experiment: AUC (0 to infinity) in ICR mouse at 10 mg/kg, po measured for 0.083 to 24 hrs by LC-MS/MS analysis; type: ADME, organism-based; design: time lower 0.083 hrs, dose 10 mg/kg, time upper 24 hrs, route po; settings: in vivo
Assay Endpoint: AUC(0-inf)

Item Smiles: O=C(NO)c1nc(-c2ccc(COc3ccc(Br)cc3)cc2)no1
Assay Endpoint: AUC(0-inf)
Result: 809 ng·h/mL
